IC50 by entry:
Target chain: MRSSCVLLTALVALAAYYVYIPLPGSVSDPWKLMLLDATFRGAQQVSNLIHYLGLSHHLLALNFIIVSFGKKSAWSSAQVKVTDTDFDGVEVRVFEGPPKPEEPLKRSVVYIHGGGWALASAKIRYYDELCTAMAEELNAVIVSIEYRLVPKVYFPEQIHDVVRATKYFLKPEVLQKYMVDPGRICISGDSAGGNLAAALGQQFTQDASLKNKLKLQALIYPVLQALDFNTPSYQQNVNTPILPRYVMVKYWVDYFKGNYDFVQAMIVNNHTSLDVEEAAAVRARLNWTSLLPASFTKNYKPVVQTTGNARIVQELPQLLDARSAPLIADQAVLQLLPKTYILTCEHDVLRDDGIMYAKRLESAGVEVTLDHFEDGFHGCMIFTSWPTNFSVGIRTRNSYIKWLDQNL

[[record]]
smiles_notation = "O=C(CCCCCCc1ccccc1)c1nc(-c2ccncc2)co1"
measurement = "> 100 µM"

[[record]]
smiles_notation = "O=C(CCCCCCc1ccccc1)c1nc(-c2ccccn2)co1"
measurement = "> 100 µM"


Q: Assign IC50 to the following record: `O=C(O)c1coc(C(=O)CCCCCCc2ccccc2)n1`
Result: > 100 µM

Reference source for all entries: ChEMBL document CHEMBL1151779
